- System: CP260
- EXPERIMENTAL_PROTOCOL: qHTS profiling for inhibitors of Plasmodium falciparum proliferation (AID 504749); note: nearly all actives have a fitted effect of over 60% in size
- CONDITION_DETAILS: P. falciparum in erythrocytes, SYBR Green DNA, 72 h; series mostly up to 12.8 µM
Inconclusive results are not listed. Calls of active or inactive are those of the source. Calls come from the whole dose curve; as a rule, active = well fitted inhibition curve with a large enough effect; inconclusive = small, poorly fitted or top-dose-only effect; inactive = flat fitted curve, though single readings scatter.
Please state which outcome applies, choosing from active, inactive

Solved entries (count: 2):
CCN(CC)CCC[C@H](C)Nc1ccnc2cc(Cl)ccc12 = active
Cn1c(=O)c2c(ncn2C[C@@H](O)CO)n(C)c1=O = inactive

[Q] # lookup: test call for CC[C@@]12CCCN3CCc4c(n(c5ccccc45)C(=O)C1)[C@H]32
[A] inactive

[Q] # lookup: test call for C[n+]1ccccc1/C=N\O
[A] inactive

[Q] # lookup: test call for O=c1[nH]cnc2c1ncn2C1OC(CO)C(O)C1O (configuration not stated)
[A] inactive

[Q] # lookup: test call for CCn1cc(C(=O)O)c(=O)c2cc(F)c(N3CCN[C@@H](C)C3)c(F)c21
[A] inactive

[Q] # lookup: test call for CC(=O)O[C@@H](C)C[N+](C)(C)C
[A] inactive

[Q] # lookup: test call for CCCN[C@@H](C)C(=O)Nc1ccccc1C
[A] inactive

[Q] # lookup: test call for COc1ccccc1OC[C@H](O)COC(N)=O
[A] inactive

[Q] # lookup: test call for C/C=C\C(=O)N(CC)c1ccccc1C
[A] inactive

[Q] # lookup: test call for C[C@@H](CN(C)C)CN1c2ccccc2CCc2ccccc21
[A] inactive

[Q] # lookup: test call for O=C(Cc1cccs1)NC1C(=O)N2C(C(=O)[O-])=C(C[n+]3ccccc3)CSC12 (configuration not stated)
[A] inactive

====

- EXPERIMENTAL_PROTOCOL: Stat Signaling Pathway (AID 446);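 note: ME-180 cervical cancer cells given 40 pM IL-6 alongside compound; SIE-controlled beta-lactamase reporter measured as 460/530 nm FRET emission ratio; % is set by controls: 0 for no effect and ±100 for the full control effect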
- CONDITION_DETAILS: ME-180 (cervical carcinoma) SIE beta-lactamase reporter, IL-6 stimulated, 5 h; at 7.69 µM (top of the series) unless noted
Records with an inconclusive call do not appear. Active and inactive are the calls of the source. Calls come from the whole dose curve; as a rule, active = well fitted curve in either direction with a large enough effect (not every such curve was filed as active); inconclusive = small, poorly fitted or top-dose-only effect, or another doubt; inactive = flat fitted curve, though single readings scatter.
Catalogue of molecules with associated activity, negative = inhibition

Please review the following examples before continuing.
N#CCCn1c(=O)c(-c2ccc(Cl)cc2)nc2cnc(Nc3ccccc3)nc21 = -24.6% (inactive)
COc1ccccc1CCn1c(=O)c(-c2cccc(Cl)c2)nc2cncnc21 = -13% (inactive)
O=c1c(-c2ccc(Cl)cc2)nc2cnc(N3CCOCC3)nc2n1C1CC1 = 26.7% (inactive)

Lookup result for O=C(c1cnccn1)N1CCC2(CCN(Cc3cc(C(F)(F)F)cc(C(F)(F)F)c3)CC2)CC1 ; measured activity, negative = inhibition: -5.04% (inactive)

Lookup result for O=C(c1cnccn1)N1CCC2(CCCN(c3cccc(-c4ccccc4)c3)C2)CC1 ; measured activity, negative = inhibition: -8.34% (inactive)

Lookup result for COc1ccc(C(=O)N2CCC3(CCN(C(=O)Nc4cccc(C#N)c4)CC3)CC2)cc1 ; measured activity, negative = inhibition: -23.9% (inactive)

Lookup result for COc1ccccc1CN1CCC2(CC1)CCN(C(=O)c1ccncc1)CC2 ; measured activity, negative = inhibition: 5.76% (inactive)

Lookup result for COc1ccc(C(=O)N2CCC3(CCCN(c4ccccn4)C3)CC2)cc1 ; measured activity, negative = inhibition: -3.02% (inactive)

Lookup result for Cc1nc2cnc(Nc3ccccc3)nc2n(Cc2cccs2)c1=O ; measured activity, negative = inhibition: 10.1% (inactive)

Lookup result for c1cncc(-c2cc(NCc3cccs3)ncn2)c1 ; measured activity, negative = inhibition: 7.74% (inactive)

Lookup result for Cc1cccc(CNc2nc(-c3ccoc3)nc3ccccc23)c1 ; measured activity, negative = inhibition: -10.1% (inactive)

Lookup result for CC(=O)N1CCC2(CC1)CCN(C(=O)Nc1cccc(C#N)c1)CC2 ; measured activity, negative = inhibition: 3.47% (inactive)
